Biological target: P-glycoprotein (ABCB1, MDR1) (Homo sapiens, UniProt P08183)
Sequence (P08183 whole entry): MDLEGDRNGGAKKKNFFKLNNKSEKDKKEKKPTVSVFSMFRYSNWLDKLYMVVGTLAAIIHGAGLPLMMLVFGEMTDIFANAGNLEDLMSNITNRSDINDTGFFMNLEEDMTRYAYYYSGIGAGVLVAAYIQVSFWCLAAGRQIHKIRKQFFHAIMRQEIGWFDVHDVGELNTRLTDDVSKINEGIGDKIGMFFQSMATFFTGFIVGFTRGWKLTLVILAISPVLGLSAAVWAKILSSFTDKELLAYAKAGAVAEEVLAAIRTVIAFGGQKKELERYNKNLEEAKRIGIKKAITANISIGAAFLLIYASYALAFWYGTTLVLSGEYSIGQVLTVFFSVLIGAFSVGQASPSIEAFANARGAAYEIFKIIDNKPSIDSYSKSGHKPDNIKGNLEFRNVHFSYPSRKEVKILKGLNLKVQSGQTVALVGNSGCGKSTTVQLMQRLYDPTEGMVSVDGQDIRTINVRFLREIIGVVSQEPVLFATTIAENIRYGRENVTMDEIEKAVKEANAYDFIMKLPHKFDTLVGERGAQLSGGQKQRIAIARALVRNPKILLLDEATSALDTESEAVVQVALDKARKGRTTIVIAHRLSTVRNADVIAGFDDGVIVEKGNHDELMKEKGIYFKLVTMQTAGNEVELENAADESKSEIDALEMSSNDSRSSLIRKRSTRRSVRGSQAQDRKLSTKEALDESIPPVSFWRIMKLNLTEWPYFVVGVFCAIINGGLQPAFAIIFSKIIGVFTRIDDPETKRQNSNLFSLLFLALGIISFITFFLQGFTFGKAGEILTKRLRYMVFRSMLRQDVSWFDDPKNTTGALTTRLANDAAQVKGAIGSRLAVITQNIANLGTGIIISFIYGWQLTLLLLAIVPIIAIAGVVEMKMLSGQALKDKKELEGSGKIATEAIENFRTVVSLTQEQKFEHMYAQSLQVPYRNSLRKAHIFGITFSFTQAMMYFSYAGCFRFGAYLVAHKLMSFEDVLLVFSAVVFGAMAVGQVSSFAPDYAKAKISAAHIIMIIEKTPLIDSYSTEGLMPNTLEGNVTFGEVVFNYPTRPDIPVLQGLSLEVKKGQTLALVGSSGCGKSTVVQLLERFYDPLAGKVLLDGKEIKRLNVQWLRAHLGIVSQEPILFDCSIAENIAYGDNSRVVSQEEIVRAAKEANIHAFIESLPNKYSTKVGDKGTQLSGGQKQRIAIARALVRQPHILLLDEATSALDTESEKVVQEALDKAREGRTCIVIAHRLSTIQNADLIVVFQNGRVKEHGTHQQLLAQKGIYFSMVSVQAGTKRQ
Assay: Inhibition of P-glycoprotein, human L-MDR1 expressed in LLC-PK1 epithelial cells using calcein-AM polarisation assay
Settings: LLC-PK1 epithelial cells expressing human MDR1 (L-MDR1), probe calcein-AM
property: pIC50
On this scale, pIC50 is minus log10 of a concentration expressed in M (mol/L).

Qu. Form: Entry = CC[C@H](C)[C@H]1O[C@]2(CC[C@@H]1C)C[C@@H]1C[C@@H](C/C=C(\C)[C@@H](O[C@H]3C[C@H](OC)[C@@H](O[C@H]4C[C@H](OC)[C@@H](O)[C@H](C)O4)[C@H](C)O3)[C@@H](C)/C=C/C=C3\CO[C@@H]4[C@H](O)C(C)=C[C@@H](C(=O)O1)[C@]34O)O2 | System = P-glycoprotein (ABCB1, MDR1) (Homo sapiens, UniProt P08183) | pIC50 = ____
Ans. 7.00
